# Tested on: MYLK2
# reported.conditions: concentration: 1 μM, replicates: in singlicate; n = 1
Listing of entries alongside the reported %Inh.

smiles: COC(=O)c1cccc(NC(=O)NCCNc2ccnc(Nc3ccc(F)cc3)n2)c1
tested.system: MYLK2
%Inh / %: 0
--
smiles: Nc1nc(-c2cccnc2)c(-c2ccnc3ccccc23)s1
tested.system: MYLK2
%Inh / %: 0
--
smiles: Fc1ccc(-c2ncn(CCCNCc3ccccc3)c2-c2ccncc2)cc1
tested.system: MYLK2
%Inh / %: 0
--
smiles: CC(C)(C)c1ccc(-n2cnc3c(N)ncnc32)cc1
tested.system: MYLK2
%Inh / %: 0
--
smiles: CSc1nn2c(=O)cc(N3CCOCC3)nc2n1Cc1cccc(Cl)c1Cl
tested.system: MYLK2;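 note: KINOMEscan kinase panel screen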
%Inh / %: 15
